# system.tested: UniProt Q9UM73
# Sequence (Q9UM73 1060-1620): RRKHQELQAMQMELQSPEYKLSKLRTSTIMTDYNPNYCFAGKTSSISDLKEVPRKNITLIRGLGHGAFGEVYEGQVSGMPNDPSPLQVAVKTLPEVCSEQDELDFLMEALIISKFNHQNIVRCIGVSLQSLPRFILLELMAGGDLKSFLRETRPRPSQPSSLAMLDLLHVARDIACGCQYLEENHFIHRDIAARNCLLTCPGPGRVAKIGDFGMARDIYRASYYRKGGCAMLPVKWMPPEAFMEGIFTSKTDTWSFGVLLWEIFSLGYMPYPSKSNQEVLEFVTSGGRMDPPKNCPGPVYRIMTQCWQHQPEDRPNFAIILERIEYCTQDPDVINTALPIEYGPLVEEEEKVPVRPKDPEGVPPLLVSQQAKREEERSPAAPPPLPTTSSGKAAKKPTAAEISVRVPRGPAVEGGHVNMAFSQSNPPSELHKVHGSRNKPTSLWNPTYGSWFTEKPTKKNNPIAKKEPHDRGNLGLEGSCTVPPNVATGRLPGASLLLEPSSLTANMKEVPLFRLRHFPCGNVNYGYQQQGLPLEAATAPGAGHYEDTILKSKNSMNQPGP
# test.protocol: Cell free kinase assay (Carna Biosciences kinases)
# Assay type: biochemical
measured.property: IC50

INSERT INTO assay_data (compound, result) VALUES
  ('Cc1ccc(F)cc1C[C@H](C)Nc1cc[nH]c(=O)c1-c1nc2cc3c(cc2[nH]1)CN(CCN(C)C)C3=O (stereo in doubt)', '3.3 nM');

###

# test.protocol: in vitro
# condition.details: human, microsomes, pH 7.4, Human LM-P1 CL (ul/min/mg)
Reported microsomal CLint at 0.5 μM values follow for various compounds
measured.property: microsomal CLint at 0.5 μM (µL/min/mg)

INSERT INTO assay_data (compound, measured_property, result_unit, result_qualifier, number) VALUES
  ('C[C@@H](Cc1cc(F)ccc1F)Nc1cc[nH]c(=O)c1-c1nc2cc3c(cc2[nH]1)C(=O)N(C)C3=O', 'microsomal CLint at 0.5 μM', 'µL/min/mg', '=', 7.81),
  ('COC1c2cc3nc(-c4c(N[C@@H](C)Cc5c(F)c(F)cc(F)c5F)cc[nH]c4=O)[nH]c3cc2C(=O)N1c1cccnc1 (stereo partly drawn)', 'microsomal CLint at 0.5 μM', 'µL/min/mg', '<', 5.8),
  ('C[C@@H](Cc1c(F)c(F)cc(F)c1F)Nc1cc[nH]c(=O)c1-c1nc2cc3c(cc2[nH]1)CN(CCN(C)C)C3=O', 'microsomal CLint at 0.5 μM', 'µL/min/mg', '=', 5.87),
  ('C[C@@H](Cc1c(F)c(F)cc(F)c1F)Nc1cc[nH]c(=O)c1-c1nc2cc3c(cc2[nH]1)C(=O)N(c1cccnc1)C3=O', 'microsomal CLint at 0.5 μM', 'µL/min/mg', '<', 5.8),
  ('C[C@@H](Cc1cc(F)cc(F)c1F)Nc1cc[nH]c(=O)c1-c1nc2cc3c(cc2[nH]1)CN(CCN(C)C)C3=O', 'microsomal CLint at 0.5 μM', 'µL/min/mg', '<', 5.8),
  ('CC(Cc1cc(F)ccc1F)Nc1cc[nH]c(=O)c1-c1nc2cc3c(cc2[nH]1)CNC3=O (stereo not drawn)', 'microsomal CLint at 0.5 μM', 'µL/min/mg', '=', 25.3),
  ('CC(Cc1cc(F)ccc1F)Nc1cc[nH]c(=O)c1-c1nc2cc3c(cc2[nH]1)CN(C)C3=O (stereo not drawn)', 'microsomal CLint at 0.5 μM', 'µL/min/mg', '=', 26.1),
  ('CC(Cc1cc(F)ccc1F)Nc1cc[nH]c(=O)c1-c1nc2cc3c(cc2[nH]1)C(=O)N(CCN(C)C)C3 (racemic)', 'microsomal CLint at 0.5 μM', 'µL/min/mg', '<', 5.8),
  ('CC(Cc1cc(F)ccc1F)Nc1cc[nH]c(=O)c1-c1nc2cc3c(cc2[nH]1)C(=O)N(CCN(C)C)C3=O (stereo not drawn)', 'microsomal CLint at 0.5 μM', 'µL/min/mg', '=', 8.77),
  ('Cc1ccc(F)cc1CC(C)Nc1cc[nH]c(=O)c1-c1nc2cc3c(cc2[nH]1)CNC3=O (stereo not drawn)', 'microsomal CLint at 0.5 μM', 'µL/min/mg', '=', 134),
  ('CC(Cc1cc(F)ccc1F)Nc1cc[nH]c(=O)c1-c1nc2cc3c(cc2[nH]1)C(=O)N(CC(O)CO)C3=O (stereo not drawn)', 'microsomal CLint at 0.5 μM', 'µL/min/mg', '=', 9.16),
  ('C[C@@H](Cc1c(F)c(F)cc(F)c1F)Nc1cc[nH]c(=O)c1-c1nc2cc3c(cc2[nH]1)C(O)N(c1cccnc1)C3=O (stereo partly drawn)', 'microsomal CLint at 0.5 μM', 'µL/min/mg', '=', 8.77);
